# MIC per record follows
System: Staphylococcus aureus
Assay: Antimicrobial activity against methicillin-susceptible Staphylococcus aureus ATCC 29213 assessed as growth inhibition after 18 hrs by MTT assay
Assay type: functional
Conditions: ATCC 29213, 18 h
All answers are understood in µM, so give the number only.

Please review the following examples before continuing.
[[record]]
test_smiles = "Clc1ccc(Sc2c(-c3ccc(Br)cc3)[nH]c3ccccc23)cc1"
observed_property = "MIC"
observed_result = 1.6

[[record]]
test_smiles = "Brc1ccc(/N=N/c2c(-c3ccc(Br)cc3)[nH]c3ccccc23)cc1"
observed_property = "MIC"
observed_result = 6.3


Exercise: Consider the compound Clc1ccc(Oc2c(-c3ccc(Cl)cc3)[nH]c3ccccc23)cc1 and give its recorded MIC.
Solution: 1.6

Exercise: Name the recorded MIC of the compound listed here: COc1ccc2[nH]c(-c3ccc(Cl)cc3)c(Oc3ccc(Cl)cc3)c2c1
Solution: 12.5

Exercise: # return recorded MIC for input Clc1ccc(Oc2c(-c3ccc(Cl)cc3)[nH]c3ccc(Br)cc23)cc1
Solution: 3.1

Exercise: Give MIC for Clc1ccc(/N=N/c2c[nH]c3ccccc23)cc1
Solution: 12.5

Origin of values: ChEMBL document CHEMBL1806381
